Measured values drawn from patent US7868204B2 for this set.

Target: cloned recombinant human HDAC-1 (Homo sapiens, UniProt Q13547)
Construct: made in house; host or cells: Baculovirus insect cell expression system
Sequence (Q13547 whole entry): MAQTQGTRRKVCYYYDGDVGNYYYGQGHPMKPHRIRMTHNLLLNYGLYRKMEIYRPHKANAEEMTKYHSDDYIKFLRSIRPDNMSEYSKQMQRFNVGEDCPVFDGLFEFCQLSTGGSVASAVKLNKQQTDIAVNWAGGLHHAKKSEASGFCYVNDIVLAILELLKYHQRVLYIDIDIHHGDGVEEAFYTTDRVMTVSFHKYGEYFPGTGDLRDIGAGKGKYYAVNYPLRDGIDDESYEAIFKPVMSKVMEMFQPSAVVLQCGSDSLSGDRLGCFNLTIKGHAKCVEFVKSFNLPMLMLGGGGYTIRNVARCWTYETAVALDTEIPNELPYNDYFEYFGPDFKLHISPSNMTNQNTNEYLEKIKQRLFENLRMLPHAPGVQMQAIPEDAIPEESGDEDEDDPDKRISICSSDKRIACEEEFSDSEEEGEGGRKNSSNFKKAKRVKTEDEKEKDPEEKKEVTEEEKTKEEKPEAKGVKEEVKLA
Assay: Human HDAC-1 enzyme inhibition, Assay 1 ([3H]-acetylated histone substrate, scintillation counting)
Assay type: biochemical
Details: Table 5b; read-out: Human HDAC-1 IC50
Experimental: Assay 1. HDAC inhibitors were screened against a cloned recombinant human HDAC-1 enzyme expressed and purified from a Baculovirus insect cell expression system. […] The mixture was extracted with ethyl acetate and the released [^3H]-acetic acid was quantified by scintillation counting. […] IC50 values for HDAC enzyme inhibitors were determined by performing dose response curves with individual compounds and determining the concentration of inhibitor producing fifty percent of the maximal inhibition.
MEASUREMENT_TYPE: IC50 (µM)
One number for each entry, in µM.

# example entries with known answers
| MOLECULE | IC50 [µM] |
| --- | --- |
| Nc1nc(/C=C/c2ccc(C(=O)Nc3ccccc3N)cc2)nc(N2CCCCC2)n1 | 11 |
| Nc1nc(N)nc(/C=C/c2ccc(C(=O)Nc3ccccc3N)cc2)n1 | 7 |

Okay, here is my list. What is IC50 for each of these?
1. COc1ccc(CCNc2nc(NCc3ccc(C(=O)Nc4ccccc4N)cc3)nc(NC3CC3)n2)cc1
2. Nc1ccccc1NC(=O)c1ccc(CNc2nc(NCCc3ccccc3)nc(NC3CC3)n2)cc1
3. Cc1nc(NCCc2ccccc2)nc(NCc2ccc(C(=O)Nc3ccccc3N)cc2)n1
4. COCCNc1nc(NCCc2ccccc2)nc(NCc2ccc(C(=O)Nc3ccccc3N)cc2)n1
5. Nc1nc(NCCCc2ccccc2)nc(NCc2ccc(C(=O)Nc3ccccc3N)cc2)n1

Response:
1. 2
2. 0.4
3. 4
4. 3
5. 2

Query: Suppose we examine the compound `COc1cccc(CCNc2nc(NCc3ccc(C(=O)Nc4ccccc4N)cc3)nc(NC3CC3)n2)c1` ; what IC50 value has been reported?
Response: 0.4

* * *

Biological target: cloned recombinant human HDAC-1 (Homo sapiens, UniProt Q13547)
Construct: made in house; host or cells: Baculovirus insect cell expression system
Assay: Human HDAC-1 enzyme inhibition, Assay 1 ([3H]-acetylated histone substrate, scintillation counting)
Format: biochemical
Details: Table 5F; read-out: Human HDAC-1 IC50
Exercise: for every item that follows, state its recorded pIC50.
Give bare numbers, as −log10 of the molar value.

| MOLECULE | REPORTED_VALUE |
| --- | --- |
| Nc1ccccc1NC(=O)c1ccc(CNc2nc(-c3ccc(Cl)cc3)cs2)cc1 | 6.30 |
| COc1cc(NCc2ccc(C(=O)Nc3ccccc3N)cc2)cc(OC)c1OC | 5.40 |
| Nc1ccccc1NC(=O)c1ccc(CN2CCOCC2)cc1 | 4.77 |

Okay, here is my list. What is pIC50 for each of these?
1. Nc1ccccc1NC(=O)c1ccc(CNc2cccc(OC(F)(F)F)c2)cc1
2. COc1cc(NCc2ccc(-c3ccc(C(=O)Nc4ccccc4N)cc3)s2)cc(OC)c1OC
3. Nc1ccccc1NC(=O)c1ccc(CSc2nc3ccc(NCc4ccccn4)cc3s2)cc1
4. Nc1ccccc1NC(=O)c1ccc(CN2C(=O)CSc3ccccc32)cc1
5. Nc1cscc1NC(=O)c1ccc(CNc2nc3ccc(OCCN4CCOCC4)cc3s2)cc1

Response:
6.30
6.00
6.00
6.00
5.15

Query: Suppose we examine the molecule `Nc1ccccc1NC(=O)c1ccc(CNc2nc3cc(Br)ccc3s2)cc1` ; what pIC50 value has been reported?
Response: 6.15

* * *

Target: cloned recombinant human HDAC-1 (Homo sapiens, UniProt Q13547)
Construct: made in house; host or cells: Baculovirus insect cell expression system
Experiment: Human HDAC-1 enzyme inhibition, Assay 1 ([3H]-acetylated histone substrate, scintillation counting)
Type: biochemical
Conditions: Table 5F; read-out: Human HDAC-1 IC50
MEASUREMENT_TYPE: pIC50
Give bare numbers, as −log10 of the molar value.

Okay, here is my list. What is pIC50 for each of these?
1. COc1cc(CNc2ccc(C(=O)Nc3ccccc3N)cc2)cc(OC)c1
2. Nc1ccccc1NC(=O)c1ccc(COc2ccc3ccccc3n2)cc1
3. Nc1ccccc1NC(=O)c1ccc(-c2cccc(CNCc3ccccn3)c2)cc1
4. COCCN1C(=O)c2ccc(NCc3ccc(C(=O)Nc4ccccc4N)cc3)cc2C1=O
5. COc1ccc(NCc2ccc(C(=O)Nc3cscc3N)cc2)cc1OC [424c]
6. COc1cc(-c2ccc3sc(NCc4ccc(C(=O)Nc5ccccc5N)cc4)nc3c2)cc(OC)c1OC [Cpd 194]
7. Nc1ccccc1NC(=O)c1ccc(NCc2nc3ccccc3[nH]2)cc1

Response:
5.40
5.70
5.70
5.52
5.52
5.52
5.10

Okay, here is my list. What is pIC50 for each of these?
1. COc1cc(NCc2ccc(C(=O)Nc3ccccc3N)cc2)c(C(=O)O)cc1OC
2. Nc1ccccc1NC(=O)c1ccc(CNc2nc3ccc(OCCN4CCOCC4)cc3s2)cc1
3. Nc1ccccc1NC(=O)c1ccc(CN2C(=O)COc3ccccc32)cc1
4. COc1ccc2nc(NCc3ccc(C(=O)Nc4ccccc4N)cc3)sc2c1

Response:
[5.52, 5.52, 5.70, 6.05]

Okay, here is my list. What is pIC50 for each of these?
1. COc1cc(C#N)c(NCc2ccc(C(=O)Nc3ccccc3N)cc2)cc1OC
2. Cc1cc(C)nc(NCc2ccc(C(=O)Nc3ccccc3N)cc2)c1
3. Nc1ccccc1NC(=O)c1ccc(CNc2nc(Cl)cc(NCc3cccnc3)n2)cc1
4. Nc1ccccc1NC(=O)c1ccc(Oc2ccccc2)cc1 [Cpd 366, N-(2-Amino-phenyl)-4-phenoxy-benzamide]
5. COc1ccc(Cn2c(=O)n(Cc3ccc(C(=O)Nc4ccccc4N)cc3)c(=O)c3ccccc32)cc1
6. Nc1ccccc1NC(=O)c1ccc(-c2ccc(CNCc3ccccn3)s2)cc1
7. Cc1cc(C)cc(NCc2ccc(C(=O)Nc3ccccc3N)cc2)c1
8. CCn1c(=O)n(Cc2ccc(C(=O)Nc3ccccc3N)cc2)c(=O)c2cc(Br)ccc21

Response:
[5.52, 5.70, 5.52, 4.85, 6.40, 5.52, 5.52, 6.30]

Okay, here is my list. What is pIC50 for each of these?
1. CNc1nc2cc(NCc3ccc(C(=O)Nc4ccccc4N)cc3)ccc2s1
2. COc1cc(Cl)cc(NCc2ccc(C(=O)Nc3ccccc3N)cc2)n1
3. Nc1ccccc1NC(=O)c1ccc(-c2noc(-c3ccccc3)n2)cc1
4. Nc1ccccc1NC(=O)c1ccc(Cc2nc(CN3CCOCC3)cs2)cc1
5. Nc1ccccc1NC(=O)c1ccc(Cn2c(=O)[nH]c3ccsc3c2=O)cc1
6. Nc1ccccc1NC(=O)c1ccc(CNc2nc3ccccc3[nH]2)cc1

Response:
[5.52, 5.70, 4.80, 5.10, 6.30, 5.52]

Okay, here is my list. What is pIC50 for each of these?
1. Nc1ccccc1NC(=O)c1ccc(CNc2cccc(F)c2)cc1
2. Nc1ccccc1NC(=O)c1ccc(Cc2coc3ccccc3c2=O)cc1
3. Nc1ccccc1NC(=O)c1ccc(NCc2cccc(OC(F)(F)F)c2)cc1
4. Cc1c(Cc2ccc(C(=O)Nc3ccccc3N)cc2)sc(NC(=O)Nc2ccccc2)c1C#N
5. CCCc1nc(Cc2ccc(C(=O)Nc3ccccc3N)cc2)no1
6. Nc1ccccc1NC(=O)c1ccc(CSc2nccc(C(F)(F)F)n2)cc1

Response:
5.52
6.30
5.70
5.70
5.30
5.70

Okay, here is my list. What is pIC50 for each of these?
1. COc1ccc2[nH]c(SCc3ccc(C(=O)Nc4ccccc4O)cc3)nc2c1
2. Cc1cc(C)nc(NCc2ccc(C(=O)Nc3ccccc3N)cc2)n1
3. Cc1onc2c1c(=O)n(Cc1ccc(C(=O)Nc3ccccc3N)cc1)c1cccc(Cl)c21
4. CC(=O)Nc1sc(Cc2ccc(C(=O)Nc3ccccc3N)cc2)c(C)c1C#N

Response:
1: 6.05; 2: 5.52; 3: 5.52; 4: 6.30

Okay, here is my list. What is pIC50 for each of these?
1. CC(=O)c1cc2c(cc1NCc1ccc(C(=O)Nc3ccccc3N)cc1)OCO2
2. CCCCn1cnc2c(NCc3ccc(C(=O)Nc4ccccc4N)cc3)nc(Cl)nc21

Response:
5.52
5.70

* * *

Exercise: for every item that follows, state its recorded pIC50.
Biological target: cloned recombinant human HDAC-1 (Homo sapiens)
Construct: made in house; host or cells: Baculovirus insect cell expression system
Test: Human HDAC-1 enzyme inhibition, Assay 1 ([3H]-acetylated histone substrate, scintillation counting)
Format: biochemical
Conditions: Table 5E; read-out: Human HDAC-1 IC50
One number for each entry, as −log10 of the molar value.

# example entries with known answers
| COMPOUND | pIC50 |
| --- | --- |
| COc1cc(OC)nc(NCc2ccc(C(=O)Nc3ccccc3N)cc2)n1 [Cpd 169] | 6.52 |
| Nc1ccccc1NC(=O)c1ccc(CN2C(=O)c3ccccc3C2=O)cc1 [Cpd 149] | 6.00 |
| Cn1ccnc1SCc1ccc(C(=O)Nc2ccccc2N)cc1 [Cpd 139] | 5.52 |
| Nc1ccccc1NC(=O)c1ccc(CSc2ccc3ccccc3n2)cc1 [Cpd 131] | 6.52 |
| Nc1ccccc1NC(=O)c1ccc(CCN2C(=O)c3ccccc3C2=O)cc1 [Cpd 152] | 6.52 |

Okay, here is my list. What is pIC50 for each of these?
1. Nc1ccccc1NC(=O)c1ccc(Cn2cnc3ccccc3c2=O)cc1 [Cpd 154]
2. COc1cccc(-c2ccc(C(=O)Nc3ccccc3N)cc2)c1 [Cpd 166]

Response:
[6.52, 5.70]

Okay, here is my list. What is pIC50 for each of these?
1. Nc1ccccc1NC(=O)c1ccc(NCCc2ccc(F)cc2)nc1 [Cpd 174]
2. Nc1ccccc1NC(=O)c1ccc(Cn2nnc3ccccc3c2=O)cc1 [Cpd 155]

Response:
1: 5.40; 2: 6.40

Query: Suppose we examine the compound COc1cccc(-c2ccc(C(=O)Nc3ccccc3N)cn2)c1 [Cpd 141] ; what pIC50 value has been reported?
Response: 5.15
